Numbers sourced from ChEMBL document CHEMBL4513216.

Experiment: Toxicity liver stage against HepG2, at 10uM
Format: cell-based
Set-up: test concentration 10 uM, cell line HepG2-A16-CD81EGFP
Conditions: human, HepG2-A16-CD81EGFP cells; read-out: INHIBITION
cytotoxicity at 10 µM for assorted molecules
Form entry: value (%) — number only.

[[record]]
molecule = "CC(C)CN(Cc1ccc(C(F)(F)F)nc1)Cc1cnn(C)c1"
measurement_label = "cytotoxicity at 10 µM"
value_measured = 1.42

[[record]]
molecule = "Cc1noc(C(C)C)c1C(=O)NCc1cc(F)cc(F)c1"
measurement_label = "cytotoxicity at 10 µM"
value_measured = -5.54

[[record]]
molecule = "CCc1nc(C(=O)N2CCCCC2)nn1-c1ccccc1Cl"
measurement_label = "cytotoxicity at 10 µM"
value_measured = 2.1

[[record]]
molecule = "N#Cc1cccnc1NCCNC(=O)N1CCN2CCCCC2C1 (stereo not given)"
measurement_label = "cytotoxicity at 10 µM"
value_measured = 0.242

[[record]]
molecule = "COc1ccccc1CN(Cc1cccnc1)CC1CCCO1 (stereo not given)"
measurement_label = "cytotoxicity at 10 µM"
value_measured = 1.03


(Q) Returns the measured cytotoxicity at 10 µM for the input molecule. Input: "CCN(CC)S(=O)(=O)c1cc(Br)ccc1OC"
(A) 0.58

(Q) Returns the measured cytotoxicity at 10 µM for the input molecule. Input: CCC(C)N(Cc1cccnc1)Cc1ccc2c(c1)OCCO2 (stereo not given)
(A) -2.83

(Q) Returns the measured cytotoxicity at 10 µM for the input molecule. Input: "C=C(C)COc1cccc(CNCCc2c[nH]cn2)c1"
(A) 8.95

(Q) Returns the measured cytotoxicity at 10 µM for the input molecule. Input: Cc1nccn1CCCN1CCCC(c2ccccc2)C1 (stereo not given)
(A) -24.8

====

Assay: Toxicity liver stage against HepG2, at 10uM
Format: cell-based
Parameters: test concentration 10 uM, cell line HepG2-A16-CD81EGFP
Conditions: human, HepG2-A16-CD81EGFP cells; read-out: INHIBITION
Measurement label: cytotoxicity at 10 µM (%)
Form entry: value (%) — number only.

[[record]]
molecule = "COc1ccc(C(CN2CCN(C)CC2)Nc2ncccn2)cc1 (stereo not given)"
value_measured = 5.54

[[record]]
molecule = "CCc1ccc(NC(C(N)=O)c2ccc(F)cc2)cc1 (stereo not given)"
value_measured = 2.27

[[record]]
molecule = "O=C1N(CCO)CCCC12CCN(Cc1nnc(C3CC3)o1)C2 (stereo not given)"
value_measured = 5.27

[[record]]
molecule = "Cc1cc(C)c(-n2cccn2)c(CN2CCOCC(CN(C)C)C2)c1 (stereo not given)"
value_measured = -8.83


(Q) Returns the measured cytotoxicity at 10 µM for the input molecule. Input: CCOC(C)C(=O)Nc1ccnn1-c1ccccc1C (stereo not given)
(A) -7.89

(Q) Returns the measured cytotoxicity at 10 µM for the input molecule. Input: "CC(C)(NCCOc1ccc(CC#N)cc1)c1nccs1"
(A) -3.25

(Q) Returns the measured cytotoxicity at 10 µM for the input molecule. Input: "COc1ccc2c(ccn2CCC(=O)Nc2nc[nH]n2)c1"
(A) -12.6

(Q) Returns the measured cytotoxicity at 10 µM for the input molecule. Input: "Cc1cc(C(F)(F)F)n2nc(C3CCN(S(C)(=O)=O)CC3)cc2n1"
(A) 0.065

(Q) Returns the measured cytotoxicity at 10 µM for the input molecule. Input: "Cc1ccc(CN2CCC(Cc3nnc(CO)n3C)CC2)cc1C"
(A) 5.19

(Q) Returns the measured cytotoxicity at 10 µM for the input molecule. Input: "CC(=O)N(CCc1nc(-c2cc(C(N)=O)co2)cs1)C(C)C"
(A) -4.91

(Q) Returns the measured cytotoxicity at 10 µM for the input molecule. Input: CN(C)C(=O)Cc1nc(CN2CCCC2Cn2cncn2)cs1 (stereo not given)
(A) 8.58

(Q) Returns the measured cytotoxicity at 10 µM for the input molecule. Input: "COc1ccc(Cc2c(O)nc(SC)n(-c3ccccc3)c2=O)cc1"
(A) 1.76
